Tested on: SN12C renal
experimental_details: NCI tumour cell line growth inhibition, 48 h; in the data active = GI50 below about 0.43 µM; inactive = the rest
Outcomes: true (1) (active), false (0) (inactive)

| compound | category_label |
| --- | --- |
| O=C1c2ccc3c4c(ccc(c24)C(=O)N1CCCCO)C(=O)N(CCCCO)C3=O | false (0) |
| O=C(/C=C/c1ccco1)Nc1ncc(Cc2cc(Cl)ccc2Cl)s1 | true (1) |
| O=C(O)CCCCCNCc1cc2cc3c(cc2c2cc(OCc4ccccc4)ccc12)OCO3 | false (0) |
| C=C(C)[C@@H]1CC[C@]2(C(=O)O)CC[C@]3(C)[C@H](CC[C@@H]4[C@@]5(C)CCC(N)C(C)(C)[C@@H]5CC[C@]43C)[C@@H]12 (stereo not given in full) | false (0) |
| CC1CCc2c(C(=O)Nc3ncc(Cc4cccc([N+](=O)[O-])c4)s3)csc2C1 (stereo not given) | false (0) |

---

Measured TGI values are reported for all entries that follow.
Test system: HCC-2998 colon
experimental_details: NCI tumour cell line growth inhibition, 48 h

| molecule | unit | qualifier_symbol | TGI |
| --- | --- | --- | --- |
| Oc1ccccc1/C=N\NC(=S)Nc1ccc(F)cc1 | µM | = | 28.5 |
| CSCSCC(CO)NC(=O)/C=C/c1c(C)[nH]c(=O)[nH]c1=O (stereo not given) | µM | > | 100 |
| CC1=C(\C=C/C(C)=C/C=C/C(C)=C/C=C/C=C(C)\C=C\C=C(C)/C=C/C2=C(C)CCCC2(C)C)C(C)(C)CCC1 | µM | > | 100 |
| COC(=O)[C@]12CC[C@@H](C)[C@H](C)[C@@H]1C1=CC[C@@H]3[C@@]4(C)C[C@@H](OC(C)=O)[C@H](OC(C)=O)[C@@](C)(COC(C)=O)[C@@H]4[C@H](O)C[C@@]3(C)[C@]1(C)CC2 | µM | > | 100 |
| CC(NC(CC12CC3CC(CC(C3)C1)C2)C(N)=O)c1ccccc1 (stereo not given) | µM | = | 40.7 |

---

Tested on: SK-MEL-2 melanoma
experimental_details: NCI tumour cell line growth inhibition, 48 h
readout_type: TGI

| compound | readout_type | result |
| --- | --- | --- |
| COc1ccc2c(c1O)[C@@]13CCCC=C1[C@@H](C2)N(C)CC3 | TGI | > 100 µM |
| N/N=C1/C(=O)N(c2ccc(Cl)cc2)C(=O)C(=O)C1c1nc2ccccc2s1 (stereo unspecified) | TGI | > 100 µM |
| NC1(C(=O)O)CCC(C(=O)O)CC1 (stereo unspecified) | TGI | > 100 µM |
| CC(C)C(Sc1nc(N)nc2nc[nH]c12)C(=O)O (stereo unspecified) | TGI | > 100 µM |
| CCCOC(=O)CCC(NC(=O)c1ccc(Nc2nc3ccccc3nc2-c2cccs2)cc1)C(=O)OCCC (stereo unspecified) | TGI | 59.9 µM |
| COc1ccc(/C(=C(\c2ccccc2)[N+](=O)[O-])c2ccc(OCCN3CCCC3)cc2)cc1 | TGI | 5.06 µM |

---

System: MALME-3M melanoma
experimental_details: NCI tumour cell line growth inhibition, 48 h; in the data active = GI50 below about 0.43 µM; inactive = the rest
Outcomes: active, inactive

| query_smiles | category_label |
| --- | --- |
| C=C(CN1CCN(c2cc(C(F)(F)F)cc(C(F)(F)F)c2)CC1)c1ccc(C(=O)Nc2ccccc2N)cc1 | inactive |
| O=C1c2ccc3c4c(ccc(c24)C(=O)N1CCCCO)C(=O)N(CCCCO)C3=O | active |
| COC(=O)c1sc(-n2cnc3cc(OC)c(OC)cc32)cc1OCc1ccccc1C(F)(F)F | inactive |
| CSc1ccc(-c2cn3ccsc3n2)cc1 | inactive |
| Cc1ccc(C)c(N2CCN(c3ccncc3N)CC2)c1 | inactive |
| Nc1nc(SCC#CCCl)c2[nH]cnc2n1 | inactive |
